System: NCI-H2087
Assay: relative viability (nuclei count vs DMSO), 5 days (fraction); higher = more cells survive
Conditions: first compound 0.05 µM
What relative viability was measured for each of the following?

Request: I'd like to know its relative viability. The molecule in question is COc1cc2nccc(Oc3ccc(NC(=O)Nc4cc(C)on4)c(Cl)c3)c2cc1OC [Tivozanib] + COc1cccc2cc(-c3nc([C@H]4CC[C@H](C(=O)O)CC4)n4ncnc(N)c34)[nH]c12 [OSI-027] (partner 0.5 µM)
Response: 0.558

Request: What do you have for Nc1ccn([C@@H]2O[C@H](CO)[C@@H](O)[C@@H]2O)c(=O)n1 [Cytarabine] + C[C@]1(O)C[C@@H](c2nc(-c3ccc4ccc(-c5ccccc5)nc4c3)c3c(N)nccn32)C1 [Linsitinib] (partner 1 µM) ?
Response: 0.827

Request: What do you have for COc1cc2nccc(Oc3ccc(NC(=O)Nc4cc(C)on4)c(Cl)c3)c2cc1OC [Tivozanib] + Cc1nc(NC(=O)N2CCC[C@H]2C(N)=O)sc1-c1ccnc(C(C)(C)C(F)(F)F)c1 [Alpelisib] (partner 2 µM) ?
Response: 1.18

Request: What do you have for Nc1ccn([C@@H]2O[C@H](CO)[C@@H](O)[C@@H]2O)c(=O)n1 [Cytarabine] + C[C@@H](Oc1cc(-c2cnn(C3CCNCC3)c2)cnc1N)c1c(Cl)ccc(F)c1Cl [Crizotinib] (partner 1 µM) ?
Response: 0.69
